# experiment_notes: Pharmacokinetics by oral administration and intravenous injection in SD rats
# Assay type: in vivo
# condition_details: male, rat, plasma, oral administration, 9.8 mg/kg, read-out: Time-to-peak, Tmax
measured_attribute: Tmax (h)
Your answer should be a plain number; it is taken to be in h.

Query :: Given C=C(F)C(=O)N1CCN(c2nc(OC[C@@]34CCCN3C[C@H](F)C4)nc3c2CO[C@H](c2c(F)c(N)cc(C)c2C(F)(F)F)C3)C[C@@H]1CC#N [Compound of formula (I)] , state its recorded Tmax.
Result :: 1.5
